- PROTOCOL DETAILS: reversal of MRP1-mediated doxorubicin resistance, pilot screen, H69AR cells, doxorubicin co-treatment (AID 601)
- CONDITION SUMMARY: H69AR cells + 2 uM doxorubicin, CellTiter-Glo, 72 h; measured here: viability with 2 uM doxorubicin; at 10 µM; stronger effect = lower value
Please go through the items and note down their viability.
Numbers only; they are read as %.

Name the recorded viability for `O=C(OCc1ccccc1F)c1ccc2c(c1)OCCO2` .
82.7

Name the recorded viability for `COc1ccc(C2=NO[C@@H]3C(=O)N(c4cccc(C)c4C)C(=O)[C@H]23)cc1OC` .
99.5

Name the recorded viability for `CCCS(=O)(=O)N1CCN(C(=O)c2cccs2)CC1` .
101

Name the recorded viability for O=C(c1ccc(Cl)cc1)N(Cc1cccs1)C1CCS(=O)(=O)C1 (stereo unspecified) .
97.6

Name the recorded viability for CC1(CC(=O)O)C(=O)N=C2C=CC=CN21 (stereo unspecified) .
84.2

Name the recorded viability for `O=C1C(C=NCCCn2ccnc2)=C(O)c2ccccc21` .
82
